- target or test system: T1, Cyno B7-H4-Fc (Cyno B7H4 ECD, FcTM_6His) (cynomolgus monkey)
- T1 construct: extracellular domain; also called cynomolgus B7-H4-Fc
- measurement description: HTRF binding, human IgG1
measurement type: pEC50
Hey, just a heads up that pEC50 is the negative log base 10 of the concentration in molar.

Give a short answer stating reported pEC50 for ZY0EOB-F05 human IgG1 (antibody, V domains shown) VH: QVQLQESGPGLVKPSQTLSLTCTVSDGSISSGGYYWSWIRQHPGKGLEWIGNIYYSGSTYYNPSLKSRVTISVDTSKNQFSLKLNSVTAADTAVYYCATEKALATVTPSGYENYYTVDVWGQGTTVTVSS VL: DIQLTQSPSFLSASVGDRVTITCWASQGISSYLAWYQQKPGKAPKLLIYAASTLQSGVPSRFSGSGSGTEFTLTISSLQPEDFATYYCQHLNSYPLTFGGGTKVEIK . 9.85
